System: α2-subtype of the human α-adrenergic receptor
assay.overview: SPA test, affinity for the α2-subtype of the human α-adrenergic receptor
Type: binding
test.context: 10 µM
property.name: % Inhibition of α2 (humans), 10 μM (%)

P. CN(C)C(c1c(F)cccc1Cl)c1cn(C)c2ccccc12 (stereo not shown) [Example 68]
Q. CN(C)C(c1c(F)cccc1Cl)c1cn(C)c2ccccc12 (stereo not shown) [Example 56]
Exercise: // pick larger % Inhibition of α2 (humans), 10 μM from pair: P vs Q I would appreciate it if you answered with the label of your choice.
Key: P
(P: 88%, Q: 39%)

====

tgt: 5-HT transporter (Rattus norvegicus, UniProt P31652)
Construct: these vesicular particles were isolated from the pons and medulla oblongata region of the male rat brain; from tissue; host or cells: rat brain synaptosomes (P2 fraction) from pons and medulla oblongata of male rats
Sequence (P31652 whole entry): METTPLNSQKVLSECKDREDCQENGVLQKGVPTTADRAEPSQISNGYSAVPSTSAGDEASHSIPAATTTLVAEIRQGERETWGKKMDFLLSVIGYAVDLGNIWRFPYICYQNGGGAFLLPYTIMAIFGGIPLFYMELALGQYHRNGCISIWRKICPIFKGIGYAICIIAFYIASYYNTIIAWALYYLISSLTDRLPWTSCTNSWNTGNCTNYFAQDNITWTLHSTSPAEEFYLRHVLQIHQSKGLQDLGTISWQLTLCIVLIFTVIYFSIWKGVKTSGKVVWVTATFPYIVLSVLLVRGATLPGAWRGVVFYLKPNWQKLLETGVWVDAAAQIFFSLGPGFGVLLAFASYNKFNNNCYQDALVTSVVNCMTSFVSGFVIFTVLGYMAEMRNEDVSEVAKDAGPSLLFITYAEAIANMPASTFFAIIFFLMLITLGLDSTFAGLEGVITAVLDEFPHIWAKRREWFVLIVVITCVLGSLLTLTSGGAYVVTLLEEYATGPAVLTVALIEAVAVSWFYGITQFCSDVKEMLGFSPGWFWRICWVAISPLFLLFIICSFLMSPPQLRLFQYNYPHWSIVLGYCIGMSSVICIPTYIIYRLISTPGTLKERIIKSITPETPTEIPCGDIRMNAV
assay.overview: Inhibition of serotonin re-uptake (5-HT uptake inhibition) in rat brain synaptosomes
Format: biochemical
test.context: rat brain synaptosomes (P2 fraction, pons and medulla oblongata); means from 2 parallel experiments; concentration not given
property.name: Inhibition of 5HT uptake in % (%)

| compound | Inhibition of 5HT uptake in % (%) |
| --- | --- |
| COc1ccc(C(c2c(C)[nH]c3ccccc23)N(C)C)cc1OC (centres unmarked) | 73 |

A. CCn1c(-c2ccccc2)c(C(c2ccc(OC)c(OC)c2)N(C)C)c2ccccc21 (centres unmarked)
B. CCc1cccc2c(C(c3ccc(OC)c(OC)c3)N(C)C)c[nH]c12 (centres unmarked)
Exercise: // which entry reports the smaller Inhibition of 5HT uptake in %, A or B ? I would appreciate it if you answered with the label of your choice.
Key: A

Origin of the recorded values: patent US7091220B2
